# system: T1, hIL-4Rα on cells (human, UniProt P24394 26-825)
# T1 sequence: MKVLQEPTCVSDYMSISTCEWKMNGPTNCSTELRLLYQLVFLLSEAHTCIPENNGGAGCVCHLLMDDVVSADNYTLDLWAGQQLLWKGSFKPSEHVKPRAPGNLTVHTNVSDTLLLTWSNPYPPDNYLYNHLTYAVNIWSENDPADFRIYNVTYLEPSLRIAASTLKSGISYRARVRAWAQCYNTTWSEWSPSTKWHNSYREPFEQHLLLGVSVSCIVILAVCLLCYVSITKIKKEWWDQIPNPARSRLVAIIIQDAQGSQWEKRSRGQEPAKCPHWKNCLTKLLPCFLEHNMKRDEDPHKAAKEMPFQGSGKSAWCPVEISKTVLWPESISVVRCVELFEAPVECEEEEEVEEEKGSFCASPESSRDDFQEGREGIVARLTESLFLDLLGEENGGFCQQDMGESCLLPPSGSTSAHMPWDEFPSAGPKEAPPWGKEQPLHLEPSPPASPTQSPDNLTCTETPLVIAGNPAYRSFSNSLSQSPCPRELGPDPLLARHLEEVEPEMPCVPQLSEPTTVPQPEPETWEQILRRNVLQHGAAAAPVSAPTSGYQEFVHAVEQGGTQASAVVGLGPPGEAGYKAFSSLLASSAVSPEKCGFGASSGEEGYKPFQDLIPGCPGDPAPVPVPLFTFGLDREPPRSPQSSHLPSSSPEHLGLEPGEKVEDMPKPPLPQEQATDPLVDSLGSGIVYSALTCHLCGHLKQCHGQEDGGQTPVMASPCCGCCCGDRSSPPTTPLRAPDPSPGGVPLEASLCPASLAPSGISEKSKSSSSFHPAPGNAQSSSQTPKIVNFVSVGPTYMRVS
# procedure-details: cell-based or functional assay
assay-endpoint: Relative Inhibition of IL-13 induced pSTAT6 IC50

-- ask Given the entry Construct 6 (mAb415) (antibody, IgG4, V domains shown, VH/VL only) VH: EVQLVESGGGLEQPGGSLRLSCAGSGFTFRDFAMTWVRQAPGKGLEWVSSISGSGDNIYYADSVKGRFTISRDNSKNTLYLQMNSLRAEDTAVYYCAKDRLSVTVRPRYYGLDVWGQGTTVTVSS VL: DIVMTQSPLSLPVTPGEPASISCRSSQGLLYSIGYNYVDWYLQKSGQSPQLLIYLGNKRASGVPDRFSGSGSGTDFTLKISRVEAEDVGFYYCMQSLQTPYTFGQGTKLEIK , report its measured Relative Inhibition of IL-13 induced pSTAT6 IC50.
-- reply 1.35 relative to dupilumab

-- ask Given the binder Construct 37 (mAb470) (antibody, IgG4, V domains shown, VH/VL only) VH: EVQLVESGGGLEQPGGSLRLSCAGSGFTFRTYAMTWVRQAPGKGLEWVSSISGGGGNTYYADSVKGRFTISRDNSKNTLYLQMNSLRAEDTAVYYCAKDRLSVTVRPRYYGLDVWGQGTTVTVSS VL: DIVMTQSPLSLPVTPGEPASISCRASQSLLYSVGYNYVDWYLQKSGQSPQLLIYLGNNRASGVPDRFSGSGSGTDFTLKISRVEAEDVGFYYCMQSLTSPYTFGQGTKLEIK , what is its reported Relative Inhibition of IL-13 induced pSTAT6 IC50?
-- reply 1.22 relative to dupilumab

-- ask Quick check: Relative Inhibition of IL-13 induced pSTAT6 IC50 of Construct 36 (mAb469) (antibody, IgG4, V domains shown, VH/VL only) VH: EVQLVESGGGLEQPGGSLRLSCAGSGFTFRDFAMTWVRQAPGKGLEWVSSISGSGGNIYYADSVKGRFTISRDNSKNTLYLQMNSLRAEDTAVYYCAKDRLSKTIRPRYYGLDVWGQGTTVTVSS VL: DIVMTQSPLSLPVTPGEPASISCRSSQSLLYSIGKNYVDWYLQKSGQSPQLLIYEGNNRASGVPDRFSGSGSGTDFTLKISRVEAEDVGFYYCMQSLTSPYTFGQGTKLEIK ?
-- reply 2.16 relative to dupilumab

-- ask Which Relative Inhibition of IL-13 induced pSTAT6 IC50 value is on record for Construct 12 (mAb421) (antibody, IgG4, V domains shown, VH/VL only) VH: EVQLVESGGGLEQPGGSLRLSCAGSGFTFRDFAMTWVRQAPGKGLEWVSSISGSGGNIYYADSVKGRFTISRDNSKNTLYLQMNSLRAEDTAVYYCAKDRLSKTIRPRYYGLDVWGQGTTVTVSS VL: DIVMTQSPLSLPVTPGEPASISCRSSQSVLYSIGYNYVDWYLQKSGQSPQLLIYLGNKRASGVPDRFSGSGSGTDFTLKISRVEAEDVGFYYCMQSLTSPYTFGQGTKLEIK ?
-- reply 0.672 relative to dupilumab

-- ask Name the recorded Relative Inhibition of IL-13 induced pSTAT6 IC50 for Construct 32 (mAb446) (antibody, IgG4, V domains shown, VH/VL only) VH: EVQLVESGGGLEQPGGSLRLSCAGSGFTFRDFAMTWVRQAPGKGLEWVSSVSGDGGNTYYADSVKGRFTISRDNSKNTLYLQMNSLRAEDTAVYYCAKDRLSVTVRPRYYGLDVWGQGTTVTVSS VL: DIVMTQSPLSLPVTPGEPASISCRSSQSLLYSNGYNYLDWYLQKSGQSPQLLIYLSSNRASGVPDRFSGSGSGTDFTLKISRVEAEDVGFYYCMQAFQAPYTFGQGTKLEIK .
-- reply 4.76 relative to dupilumab
